- tgt: EGFR L858R/T790M (Homo sapiens, UniProt P00533, L858R/T790M)
- Sequence (P00533 25-1210 T790M/L858R): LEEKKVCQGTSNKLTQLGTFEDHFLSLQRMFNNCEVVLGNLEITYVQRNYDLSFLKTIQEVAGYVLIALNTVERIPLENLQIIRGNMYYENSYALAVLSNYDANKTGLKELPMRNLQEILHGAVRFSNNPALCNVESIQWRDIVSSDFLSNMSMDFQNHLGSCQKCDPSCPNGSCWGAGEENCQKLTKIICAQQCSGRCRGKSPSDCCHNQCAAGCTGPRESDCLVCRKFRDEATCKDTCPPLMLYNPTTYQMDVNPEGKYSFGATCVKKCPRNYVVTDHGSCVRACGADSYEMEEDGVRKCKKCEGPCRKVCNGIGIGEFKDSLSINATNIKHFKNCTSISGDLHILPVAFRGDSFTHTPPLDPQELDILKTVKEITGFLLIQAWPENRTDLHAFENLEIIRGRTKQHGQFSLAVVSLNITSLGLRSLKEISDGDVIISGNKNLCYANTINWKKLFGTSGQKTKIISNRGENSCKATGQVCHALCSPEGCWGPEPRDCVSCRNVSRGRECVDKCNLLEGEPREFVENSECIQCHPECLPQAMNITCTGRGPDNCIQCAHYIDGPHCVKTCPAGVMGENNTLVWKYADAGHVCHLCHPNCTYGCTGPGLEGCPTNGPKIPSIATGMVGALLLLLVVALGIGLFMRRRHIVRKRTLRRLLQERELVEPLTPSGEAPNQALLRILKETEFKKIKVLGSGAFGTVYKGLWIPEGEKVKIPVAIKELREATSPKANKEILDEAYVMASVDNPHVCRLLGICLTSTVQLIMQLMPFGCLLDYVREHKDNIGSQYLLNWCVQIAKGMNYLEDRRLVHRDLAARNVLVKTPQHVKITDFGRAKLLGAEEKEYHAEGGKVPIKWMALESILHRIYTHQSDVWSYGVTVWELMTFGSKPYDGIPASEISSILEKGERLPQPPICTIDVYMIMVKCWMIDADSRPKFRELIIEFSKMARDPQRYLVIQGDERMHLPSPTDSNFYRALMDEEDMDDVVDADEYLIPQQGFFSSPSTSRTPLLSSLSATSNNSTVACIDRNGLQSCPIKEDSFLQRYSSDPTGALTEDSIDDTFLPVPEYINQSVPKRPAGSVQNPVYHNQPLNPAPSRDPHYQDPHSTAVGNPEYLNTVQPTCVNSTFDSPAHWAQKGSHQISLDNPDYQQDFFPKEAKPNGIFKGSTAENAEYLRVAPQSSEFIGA
- protocol summary: EGFR biochemical assay (headed HTRF-based; method describes Z'-LYTE), L858R/T790M
- stated conditions: Table 4
pIC50: −log10 of the molar value.
measurement kind: pIC50

[[record]]
compound = "C=C1CC[C@H]2C[C@@H](N3Cc4cnc(Nc5ccc(N6CCN(C)CC6)cc5)nc4N(C)C3=O)CCN2C1=O"
measurement_kind = "pIC50"
reading = "< 6.00"


Field: pIC50. Fill in for each record below.
1. C=CC(=O)N1c2ccccc2[C@@H](N2Cc3cnc(Nc4ccc(N5CCN(C)CC5)cc4)nc3N(C)C2=O)C[C@@H]1C
2. C=CC(=O)N(C)c1ccccc1CN1Cc2cnc(Nc3ccc(N4CCN(C)CC4)cc3)nc2N(C)C1=O
3. C=CC(=O)N1CC[C@H](N2Cc3cnc(Nc4ccc(N5CCN(C)CC5)cc4)nc3N(CCO)C2=O)c2cccc(C)c21
4. C=CC(=O)N1CC[C@@H](N2Cc3cnc(Nc4ccc(N5CCN(C)CC5)cc4)nc3N(C)C2=O)c2cccc(C)c21
5. C=CC(=O)N1CCC(N2Cc3cnc(Nc4ccc(N5CCN(C)CC5)cc4)nc3N(C)C2=O)c2cccc(O)c21 (single isomer, unassigned) [Compound 156]

Output:
1. < 6.00
2. < 6.00
3. < 6.00
4. < 6.00
5. 8.93

* * *

- tgt: EGFR L858R/C797S Ba/F3 cells (Homo sapiens, UniProt P00533, C797S/L858R, cells depend on it)
- Sequence (P00533 whole entry C797S/L858R): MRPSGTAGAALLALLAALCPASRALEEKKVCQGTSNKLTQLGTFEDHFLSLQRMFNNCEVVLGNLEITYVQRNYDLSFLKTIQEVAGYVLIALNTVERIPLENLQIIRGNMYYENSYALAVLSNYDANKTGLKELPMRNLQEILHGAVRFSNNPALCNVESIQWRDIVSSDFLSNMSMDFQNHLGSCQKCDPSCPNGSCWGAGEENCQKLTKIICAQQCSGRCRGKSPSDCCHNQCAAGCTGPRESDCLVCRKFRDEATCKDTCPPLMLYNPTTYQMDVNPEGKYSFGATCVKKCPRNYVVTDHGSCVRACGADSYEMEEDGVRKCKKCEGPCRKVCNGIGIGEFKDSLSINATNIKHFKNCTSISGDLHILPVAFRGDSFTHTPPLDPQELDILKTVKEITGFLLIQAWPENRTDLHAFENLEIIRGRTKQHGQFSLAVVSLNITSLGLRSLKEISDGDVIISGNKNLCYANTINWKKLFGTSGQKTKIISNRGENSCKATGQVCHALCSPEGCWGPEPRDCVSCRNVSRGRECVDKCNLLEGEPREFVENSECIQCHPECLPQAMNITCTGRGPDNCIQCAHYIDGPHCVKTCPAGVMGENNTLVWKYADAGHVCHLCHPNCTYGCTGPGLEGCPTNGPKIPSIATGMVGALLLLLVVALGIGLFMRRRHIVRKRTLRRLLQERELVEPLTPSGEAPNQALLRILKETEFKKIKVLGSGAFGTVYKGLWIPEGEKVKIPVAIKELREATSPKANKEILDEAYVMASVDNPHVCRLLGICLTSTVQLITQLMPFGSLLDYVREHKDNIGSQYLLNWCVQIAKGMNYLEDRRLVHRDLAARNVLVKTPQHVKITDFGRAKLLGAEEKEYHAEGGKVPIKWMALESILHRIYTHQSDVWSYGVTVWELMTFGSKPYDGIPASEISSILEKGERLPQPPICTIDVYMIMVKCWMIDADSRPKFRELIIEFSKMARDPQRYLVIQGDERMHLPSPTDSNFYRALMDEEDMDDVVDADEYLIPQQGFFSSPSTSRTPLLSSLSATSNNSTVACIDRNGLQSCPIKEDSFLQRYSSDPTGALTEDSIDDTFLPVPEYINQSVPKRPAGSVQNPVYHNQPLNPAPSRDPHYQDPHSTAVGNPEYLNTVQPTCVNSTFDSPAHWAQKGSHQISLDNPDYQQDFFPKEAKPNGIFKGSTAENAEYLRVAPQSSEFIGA
- protocol summary: Ba/F3 cell proliferation (Cell Titer Glo), EGFR L858R/C797S
- Assay type: cell-based, murine
- stated conditions: 72 hours, Table 6
measurement kind: GI50

[[record]]
compound = "C=CC(=O)Nc1cn(C)nc1CN1Cc2cnc(Nc3ccc(N4CCN(C)CC4)cc3)nc2N(C)C1=O"
reading = "≥ 2500 nM"

[[record]]
compound = "C=CC(=O)N1CC[C@H](N2Cc3cnc(Nc4ccc(N5CCN(C)CC5)cc4)nc3N(C3CC(O)C3)C2=O)c2cccc(C)c21 (some centres unmarked)"
reading = "< 100 nM"

[[record]]
compound = "C=C(F)C(=O)N1CC[C@H](N2Cc3cnc(Nc4ccc5c(c4)CCN(C)C5)nc3N(c3cnn(C)c3)C2=O)c2ccccc21"
reading = "< 100 nM"

[[record]]
compound = "C=C(F)C(=O)N1CC(F)(F)C(N2Cc3cnc(Nc4cnn(CCO)c4)nc3N(C)C2=O)c2ccccc21 (centres unmarked)"
reading = "≥ 2500 nM"


The measured GI50 associated with C=CC(=O)N1CCC(N2Cc3cnc(Nc4ccc(N5CCN(C)CC5)cc4)nc3N(C)C2=O)C2(CCC2)C1 (centres unmarked) reads ≥ 2500 nM

* * *

- tgt: EGFR L858R (Homo sapiens, UniProt P00533, L858R)
- Sequence (P00533 25-1210 L858R): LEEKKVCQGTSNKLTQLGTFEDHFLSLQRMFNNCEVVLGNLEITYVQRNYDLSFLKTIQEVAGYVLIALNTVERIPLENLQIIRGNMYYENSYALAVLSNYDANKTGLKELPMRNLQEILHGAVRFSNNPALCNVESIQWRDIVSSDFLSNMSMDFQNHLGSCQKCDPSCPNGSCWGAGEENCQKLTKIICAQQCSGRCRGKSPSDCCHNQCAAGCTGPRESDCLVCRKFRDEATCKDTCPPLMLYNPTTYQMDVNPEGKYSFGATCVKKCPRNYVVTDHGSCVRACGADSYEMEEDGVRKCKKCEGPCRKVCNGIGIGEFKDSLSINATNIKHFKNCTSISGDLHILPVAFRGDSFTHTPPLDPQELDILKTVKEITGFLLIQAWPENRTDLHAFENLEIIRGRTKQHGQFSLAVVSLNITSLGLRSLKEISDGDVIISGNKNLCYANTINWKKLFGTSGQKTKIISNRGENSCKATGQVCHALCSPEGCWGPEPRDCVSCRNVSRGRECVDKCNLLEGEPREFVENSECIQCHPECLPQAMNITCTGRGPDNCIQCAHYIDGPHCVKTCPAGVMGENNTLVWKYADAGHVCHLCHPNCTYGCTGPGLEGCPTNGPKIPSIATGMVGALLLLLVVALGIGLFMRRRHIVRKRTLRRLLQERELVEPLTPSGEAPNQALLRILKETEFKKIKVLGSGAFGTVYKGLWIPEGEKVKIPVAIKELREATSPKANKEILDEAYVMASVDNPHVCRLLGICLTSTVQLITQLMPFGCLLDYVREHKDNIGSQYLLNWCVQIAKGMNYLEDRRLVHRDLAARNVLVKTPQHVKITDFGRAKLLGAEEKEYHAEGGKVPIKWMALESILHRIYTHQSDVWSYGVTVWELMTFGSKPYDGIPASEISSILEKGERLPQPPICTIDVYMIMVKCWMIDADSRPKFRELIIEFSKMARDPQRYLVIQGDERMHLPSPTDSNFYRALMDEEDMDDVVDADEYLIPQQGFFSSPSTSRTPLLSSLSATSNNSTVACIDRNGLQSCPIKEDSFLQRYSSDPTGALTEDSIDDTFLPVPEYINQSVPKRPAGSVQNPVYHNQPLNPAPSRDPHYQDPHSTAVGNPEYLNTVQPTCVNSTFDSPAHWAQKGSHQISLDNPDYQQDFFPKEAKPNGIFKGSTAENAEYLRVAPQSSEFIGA
- protocol summary: EGFR biochemical assay (headed HTRF-based; method describes Z'-LYTE), L858R
- stated conditions: Table 4
measurement kind: pIC50
Numbers only, as −log10 of the molar value.

// known answers, use as guide
[[record]]
compound = "C=CC(=O)N1CC[C@@H](N2Cc3cnc(Nc4ccc(N5CCN(C)CC5)cc4)nc3N(C)C2=O)c2cccc(O)c21 (single isomer, unassigned)"
tgt = "EGFR L858R (Homo sapiens, UniProt P00533, L858R)"
measurement_kind = "pIC50"
reading = 7.91

[[record]]
compound = "C=CC(=O)N1CCC(N2Cc3cnc(Nc4ccc(N5CCN(C)CC5)cc4)nc3N(C)C2=O)c2cccc(O)c21 (stereo not drawn) [Compound 133]"
tgt = "EGFR L858R (Homo sapiens, UniProt P00533, L858R)"
measurement_kind = "pIC50"
reading = 8.95

[[record]]
compound = "C=CC(=O)N1CCC(N2Cc3cnc(Nc4ccc(N5CCN(C)CC5)cc4)nc3N(C)C2=O)c2cccc(OC)c21 (single isomer, unassigned) [Compound 123]"
tgt = "EGFR L858R (Homo sapiens, UniProt P00533, L858R)"
measurement_kind = "pIC50"
reading = 7.20


Shift focus to the following entry.
The value of pIC50 recorded for C=CC(=O)N1CC[C@H](N2Cc3cnc(Nc4ccc(CS(C)(=O)=O)cc4)nc3N(C)C2=O)c2cccc(C)c21 when tested on EGFR L858R (Homo sapiens, UniProt P00533, L858R) reads 8.80
